- Assay Overview: Cmax in specific pathogen free Sprague-Dawley rat at 2 mg/kg, iv measured after 5 mins by LC-MS/MS analysis
- Type: ADME, organism-based
- Set-up: dose 2 mg/kg, route intravenous
- Experimental Context: in vivo
Property Label: Cmax (µM)
Field: numeric (µM). Do not append units.

Using the record for `CCOc1ccc(Oc2ccc(-c3cnc(-c4cc(O)c(O)c(Br)c4Br)o3)cc2)cc1` , report its Cmax. 3.35

---

- Target Or Test System: Tyrosine-protein phosphatase non-receptor type 1 (Homo sapiens, UniProt P18031, A27S)
- Sequence (P18031 whole entry A27S): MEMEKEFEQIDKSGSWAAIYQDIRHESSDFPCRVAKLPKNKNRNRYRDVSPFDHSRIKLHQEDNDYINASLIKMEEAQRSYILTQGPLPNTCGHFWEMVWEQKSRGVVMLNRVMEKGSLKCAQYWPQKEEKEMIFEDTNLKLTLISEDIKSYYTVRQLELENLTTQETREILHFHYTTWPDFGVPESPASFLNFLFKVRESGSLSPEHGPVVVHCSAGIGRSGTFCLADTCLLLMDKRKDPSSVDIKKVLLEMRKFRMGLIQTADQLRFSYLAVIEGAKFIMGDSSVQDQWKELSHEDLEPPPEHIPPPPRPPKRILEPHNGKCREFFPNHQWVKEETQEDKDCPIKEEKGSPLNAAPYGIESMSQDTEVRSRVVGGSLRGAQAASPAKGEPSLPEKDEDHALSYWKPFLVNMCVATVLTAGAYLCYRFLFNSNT
- Assay Overview: Inhibition of PTP1B A27S mutant (unknown origin)
Property Label: pIC50
Worth noting: pIC50 values are minus log10 of concentrations stated in mol/L.

The examples below pair each entry with its known result.
Cc1ccc(Oc2ccc(-c3cnc(-c4cc(O)c(O)c(Br)c4Br)o3)cc2)cc1 | 5.86
COc1ccc(Oc2ccc(-c3cnc(-c4cc(O)c(O)c(Br)c4Br)o3)cc2)cc1 | 4.89
Oc1cc(-c2ncc(-c3ccc(Oc4ccccc4)cc3)o2)c(Br)c(Br)c1O | 5.40
CCOc1ccc(Oc2ccc(-c3cnc(-c4cc(O)c(O)c(Br)c4Br)o3)cc2)cc1 | 5.75

Now turn to the next molecule.
So what pIC50 did `CC(C)c1ccc(Oc2ccc(-c3cnc(-c4cc(O)c(O)c(Br)c4Br)o3)cc2)cc1` get with Tyrosine-protein phosphatase non-receptor type 1 (Homo sapiens, UniProt P18031, A27S)? 5.99

---

- Assay Overview: Half life in specific pathogen free Sprague-Dawley rat at 2 mg/kg, iv or 10 mg/kg, po by LC-MS/MS analysis
- Format: ADME, organism-based
- Experimental Context: in vivo
Property Label: half-life (min)
Express the result in min but write the number alone.

Fill in: half-life of `CCOc1ccc(Oc2ccc(-c3cnc(-c4cc(O)c(O)c(Br)c4Br)o3)cc2)cc1` is ___ 24

---

- Assay Overview: Oral bioavailability in specific pathogen free Sprague-Dawley rat at 10 mg/kg by LC-MS/MS analysis
- Assay type: ADME, organism-based
- Experimental Context: in vivo
Property Label: bioavailability (%)
I only need the number, in %, no unit after it.

I have this molecule here, `CCOc1ccc(Oc2ccc(-c3cnc(-c4cc(O)c(O)c(Br)c4Br)o3)cc2)cc1` , and I need its recorded bioavailability. 8.31

---

- Assay Overview: Tmax in specific pathogen free Sprague-Dawley rat at 10 mg/kg, po by LC-MS/MS analysis
- Assay type: ADME, organism-based
- Experimental Context: in vivo
Property Label: Tmax (min)
Answer in min, number only, no unit symbol.

Recorded Tmax of `CCOc1ccc(Oc2ccc(-c3cnc(-c4cc(O)c(O)c(Br)c4Br)o3)cc2)cc1` , please. 30

---

- Assay Overview: Volume of distribution at steady state in specific pathogen free Sprague-Dawley rat at 2 mg/kg, iv or 10 mg/kg, po by LC-MS/MS analysis
- Assay type: ADME, organism-based
- Experimental Context: in vivo, read-out: Vdss
Property Label: Vd (L/kg)
# number only, unit L/kg dropped from output

Any idea what Vd was measured for `CCOc1ccc(Oc2ccc(-c3cnc(-c4cc(O)c(O)c(Br)c4Br)o3)cc2)cc1` ? 4.25

---

- Assay Overview: Mean residence time in specific pathogen free Sprague-Dawley rat at 2 mg/kg, iv or 10 mg/kg, po by LC-MS/MS analysis
- Format: ADME, organism-based
- Experimental Context: in vivo
Property Label: MRT (min)
Note: unit min is implicit; provide only the numeric part.

Sample `CCOc1ccc(Oc2ccc(-c3cnc(-c4cc(O)c(O)c(Br)c4Br)o3)cc2)cc1` — what was its MRT? 34.8

Origin of values: ChEMBL document CHEMBL4400525
